- method notes: yeast display, Sf9 membrane polyspecificity reagent, FACS + sequencing; frameworks hold sequencing errors
measurement kind: polyreactivity (PSR sort gate)

Past entries and their recorded results:
Enquiry: I'd like to know its polyreactivity (PSR sort gate). The sequence in question is QVQLVESGGGLVQAGGSLRFSCAASGGTFGYNAMGWYRQAPGKDRELVARISWRGASTYYADSVKGRFTLSRDNAKNTVYLQMNSLKPEDTAVYYCAAYSFNYQPAYAYRGEDYWGQGTQVTVSS
Return: low polyreactivity

Enquiry: I'd like to know its polyreactivity (PSR sort gate). The sequence in question is QVQLVESGGGLVQAGGSLRLSCAASGRIFGPYTMGWYRQAPAKEREFVAAITRRGGSTYYADSVKGRFTISRDNAKNTVYLQMNSLKPEDTAVYYCAAVGLKRSLGYSWGQGTQVTVSS
Return: low polyreactivity

Enquiry: I'd like to know its polyreactivity (PSR sort gate). The sequence in question is QVHLVESGGGLVQAGGSLRLSCAASGSILSDNTLGWYRQAPGKERELVAAISRSGGTTYYADSVKGRFTISRDNAKNTVYLQMNSLKPEDTAVYYCAARYYYRYNYWGQGTQVTVSS
Return: high polyreactivity

Enquiry: I'd like to know its polyreactivity (PSR sort gate). The sequence in question is QVQLVESGGGLVQAGGSLRLSCAASGSIFPHNAMGWYRPAPGKERELVAAISSGGSTNYADSVKGRFTISRDNANNTVYLQLNSLKPEDTAVYYCAKSIDGWYWRRRRYDYWGQGTQVTVSS
Return: low polyreactivity

Enquiry: I'd like to know its polyreactivity (PSR sort gate). The sequence in question is QVQLVESGGGLVQAGGSLRISCAASGYTFPFYTMGWYRQAPGKERELVAAINSGGSTYYADSVKGRFTISRDNAKNTVYLQMNRLKPEDTAVYYCAVEGGFRVRYQAQYRFYYWGQGTEVTVSS
Return: high polyreactivity

Further cases:
Enquiry: I'd like to know its polyreactivity (PSR sort gate). The sequence in question is QVQLVDSGGGLVQAGGSLLLSCAASGFTFTIYAMGWNRQAPGKERELVATISGRAGRTYYADSVKGRFTISRDNAKNTVYLQMNSLKPEDTAVYYCNAGQWRYPGLYYYWGQGTQVTVSS
Return: high polyreactivity

Enquiry: I'd like to know its polyreactivity (PSR sort gate). The sequence in question is QVQLVESGGGLVQAGGSLRLSCAASGRIFGINAMGWYRQAPGKERELVAAITSGVSTNYADSVKGRFTISRDNAKNTVYLQMNSLKPEDTAVYYCATRRNRSYDYWGQGTQVTVSS
Return: low polyreactivity

Enquiry: I'd like to know its polyreactivity (PSR sort gate). The sequence in question is QDQLVESGGGLVQAGGSLRLSCAASGSIFTKYAMGLYRQAPGKEREFVAAIDVNGGSTRYADSVKGRFTISRDYANNTVYLQMYSLKPEDTAVYYCAKDYTASYYPQGLYDYWGQGTQVTVSS
Return: low polyreactivity

Enquiry: I'd like to know its polyreactivity (PSR sort gate). The sequence in question is QVQLVESGGGLVQAGGSLRLSCAASGITFGHYTMGWYRQAPGKERELVAAISWSGGSTYYADSVKGRFTISRDNAKNTVYLQMNSLKPEDTAVYYCNRVKPVIASYDSDYWGQGTQVTVSS
Return: low polyreactivity

Enquiry: I'd like to know its polyreactivity (PSR sort gate). The sequence in question is QVQLVESGGGLVQAGGSLRLSCAASGSTFYSYTMGWYRQAPGKERELVASITRGGSTYYADSVKGRFTISRDNAKNTVYLQLNSLKPEDTAVYYCAARGRYSIARYDYWGQGTQVTVSS
Return: high polyreactivity

Enquiry: I'd like to know its polyreactivity (PSR sort gate). The sequence in question is QVQLVESGGGLVQAGGSLRISCAASGSSYGTYAMGWYRKAPGKERELVAAINFSGTSTYYADSVKGRFTISRDKAKHTVYLQMNRLKPEETADYYCAARFYWKYGRYDNWGQGTQVTVSS
Return: high polyreactivity

---

- method notes: yeast display, Sf9 membrane polyspecificity reagent, FACS + sequencing; frameworks hold sequencing errors
measurement kind: polyreactivity (PSR sort gate)

Past entries and their recorded results:
Enquiry: I'd like to know its polyreactivity (PSR sort gate). The sequence in question is QVQLVESGGGLVQAGGSLRLSCAASGFIFWLYAMGWYRQAPGKERELVAAISSSGGNTYYADSVKGRFTISRDNAKNTVYLQMNSLKPEDTAVYYCAATYSYGRTYSGYYWGQGTQVTVSS
Return: low polyreactivity

Enquiry: I'd like to know its polyreactivity (PSR sort gate). The sequence in question is QVQLVESGGGLVQAGGSLRLSCAASGNTFSAYAMGWYRQAPGKERELVAAISSRGGSTYYADSVKGRFTISRDNAKNTVYLQMNSLKPEDTAVYYCAAGYRGVANRKWIYYYWGQGTQVTVSS
Return: high polyreactivity

Enquiry: I'd like to know its polyreactivity (PSR sort gate). The sequence in question is QVQLVESGGGLVQAGGSLRLSCAASGSIFPYNAMGWYRQPPGKERELVATISSGGSTNYADSVKGRFTISRDNAKNTVYLQMNSLKPEDTAVFYCAADVIVFYYAPNYWGDIEYGYWGQGTQVTVSS
Return: low polyreactivity

Enquiry: I'd like to know its polyreactivity (PSR sort gate). The sequence in question is QVQLVESVGGLVQAGGSLRLSCAASGRTFAYYTMGWYRQAPGKERELVARISGYGGSTYYADSVKGRFTISRDNAKNTVYLQMNSLKPEDTAVYYCNVVGAYYRYDYWGQGTQVTVSS
Return: high polyreactivity

Enquiry: I'd like to know its polyreactivity (PSR sort gate). The sequence in question is QVQLVESGAGLVQAGGSLRLCCAASGFIFYLNTMGWYRQAPGKERELVAGITWRGGTTYYADSVKGRFTISRDNAKNSVYLQMNSLKPEDTAVYYCAARRYSRPYSYGFYYWGQGTLVTVSS
Return: high polyreactivity

Now for another entry.
Enquiry: I'd like to know its polyreactivity (PSR sort gate). The sequence in question is QVQLVESGGGLVQAGGSLRLSCAASGYIFGLYAMGWYRQAPGKERELVASITGGGSTYADSVKGRFTISRDNAKNTVYLQMISLKPEDTAVYYCAAESTVRPYEHSGDYWGQGTQVTVSS
Return: low polyreactivity

---

- method notes: yeast display, Sf9 membrane polyspecificity reagent, FACS + sequencing; frameworks hold sequencing errors
measurement kind: polyreactivity (PSR sort gate)

Past entries and their recorded results:
Enquiry: I'd like to know its polyreactivity (PSR sort gate). The sequence in question is QVQLVESGRGLFQAGGSLRLSCAASGSTFYTNAMVWYRQAPGKEWELVATITSSGGITSYADSVKGRFTISRDNAKITVYLHMNSLKPEDTAVYYCAADFGASYDTHEYGYWGQGTQVTVSS
Return: low polyreactivity

Enquiry: I'd like to know its polyreactivity (PSR sort gate). The sequence in question is QVQLVESGGGLVQAGGSLRLSCAASGSTFSINAMGWYRPAPGKERELVAAITWRGTRTYYADSVKGRFTISRDNAKNTVYLQMNSLKPEDTAVYYCAATGSGQSSYYYWGQGTQVTVSS
Return: high polyreactivity

Enquiry: I'd like to know its polyreactivity (PSR sort gate). The sequence in question is QVQLVESGGGLVQAVGSLRLSCAASGFISKYYAMGWYRQAPGKERELVASISRDGSTSYADSVKGRFTISRDNAKNTVYLQMNSLKPEDTAVYYCAAPSYRTRYYYWGQGTQVTVSS
Return: high polyreactivity

Enquiry: I'd like to know its polyreactivity (PSR sort gate). The sequence in question is QVQLVESGGGLVQAGGSLRLSCSASGIIFYFYAMGWYRQAPGKERELVAAISDDGVSTDYADSVKGRFTISRDNAKNTVYLQMNSLKPEDTAVFYCNARYSGYLRLDYWGQGTQVTVSS
Return: low polyreactivity

Further cases:
Enquiry: I'd like to know its polyreactivity (PSR sort gate). The sequence in question is QVQLVESGGGLVQAGGSLRISCAASGRTCNHYTMGWYRPAPGKERELVAAITSGGSTYYADSVKGRFTISRDNAKNTVYLQMNSLKPEDTAVYYCARVRPLYHYSRYDYWGQGTQVTVSS
Return: high polyreactivity

---

- method notes: yeast display, Sf9 membrane polyspecificity reagent, FACS + sequencing; frameworks hold sequencing errors
measurement kind: polyreactivity (PSR sort gate)

Past entries and their recorded results:
Enquiry: I'd like to know its polyreactivity (PSR sort gate). The sequence in question is QVQLVESGGGLVQAGGSLRLSCAASGSIFYNAMGWYRQAPGKERELVAAISYRGGRTYYADSVKGRFTISRDNAKNTVYLQMNSLKPEDTAVYYCAADSTVGRYPYDYWGQGTQVTVSS
Return: high polyreactivity

Enquiry: I'd like to know its polyreactivity (PSR sort gate). The sequence in question is QVQLVESGGGLVQAGGSLRLSCAASGSIFFYYAMGWYRQAPGKEREFVAGITYSGGITYYADSVKGRFTISRDNGKNTVYLQMNSLKPEDTAVYYCDYGGGVYQYGYWGQGPQVTVSS
Return: low polyreactivity

Enquiry: I'd like to know its polyreactivity (PSR sort gate). The sequence in question is QVQLVESGGGLVQAGGSLRLSCSASGSIFKYYTMGWYRQAPGKERELVASINGGGSTNYADSVKGRFTISRDNAKNTVYLQMNSLKPEDTAVYYCNARYWWQDGYWGQGTQLTVSS
Return: high polyreactivity

Enquiry: I'd like to know its polyreactivity (PSR sort gate). The sequence in question is HVQRVESGGGLVQAGASLRLSCAASGGIFSPNAMGWYRQAPGKERELVAAISSNGGSTNYADSVKGRFTISRDNAKNTVYLQMNSLKPEDTAVYYCAGLQKRRSYWRPFYWGQGTQVTVSS
Return: low polyreactivity

Now for another entry.
Enquiry: I'd like to know its polyreactivity (PSR sort gate). The sequence in question is QVQLVESGGGLVQAGGSLRLSCAASGSTFYYYAMGWYRQAPGKERELVAAISVRAGITYYADSVKGRFTISRDNAKNTVYLQMNSLKPEDTAVYYCAKDHWTTSYDEGDYWGQGTQVTVSS
Return: low polyreactivity

Origin of values: the nanobody polyreactivity screen of Harvey et al. (2022)
